Tested on: Vero E6 infected with SARS-CoV-2
experimentSummary: SARS-CoV-2 infection rate relative to infected DMSO; higher = more infection, active = 60 or less
experimentalParameters: 24 h
testReadout: SARS-CoV-2 infection rate (%)
Answers are plain numbers, in %.

Sample answers from the record:
# compound, unitAbbreviation, experimentalResult
data = [
    ("O=C(c1ccc(F)cc1)C1CCN(CCCCc2ccccc2)CC1 [4-(4-fluorobenzoyl)-1-(4-phenylbutyl)-piperidine] (10 µM)", "%", 110),
    ("CC(NCCc1ccc(O)cc1)C(O)c1ccc(O)cc1 (stereo not drawn) [ritodrine] (10 µM)", "%", 96),
    ("Nc1n[n+]([O-])c2ccccc2[n+]1[O-] [tirapazamine] (10 µM)", "%", 99.5),
    ("CC(=C(CCO)SSCC1CCCO1)N(C=O)Cc1cnc(C)nc1N (stereo in doubt) [fursultiamine] (10 µM)", "%", 110),
    ("CN1CCN(C(=O)O[C@H]2c3nccnc3C(=O)N2c2ccc(Cl)cn2)CC1 (10 µM)", "%", 108),
    ("Sc1nc2ccccc2s1 [benzo[d]thiazole-2(3H)-thione] (10 µM)", "%", 104),
]

I would be grateful if you could provide SARS-CoV-2 infection rate for each of the following entries.
1. O=C(CCCN1CCN(c2ccccn2)CC1)c1ccc(F)cc1 [azaperone] (10 µM)
2. CC(COc1ccccc1)NC(C)C(O)c1ccc(O)cc1 (stereo not drawn) [isoxsuprine] (10 µM)

Return:
83
109
